Provenance of the data: patent US20210161997A1

- System: ANGPTL3
- Protocol summary: RNA-seq of ANGPTL3 expression in compound-treated primary human hepatocytes; note: test concentration or dose not given here
- Type: cell-based
- Test parameters: additional compounds (Table 13), linear fold change
The following compounds are listed with their measured ANGPTL3-LINEAR FOLD CHANGE values.

Look over these answered cases.
- Compound: "CC[C@@H]1C(=O)N(C)c2cnc(Nc3ccc(C(=O)NC4CCN(C)CC4)cc3OC)nc2N1C1CCCC1 [BI 2536]"
  ANGPTL3-LINEAR FOLD CHANGE: 0.2045
- Compound: "CCNC(=O)Nc1ccc(-c2nc3c(c(N4CCOC[C@@H]4C)n2)CCN(C2COC2)C3)cc1 [GDC-0349]"
  ANGPTL3-LINEAR FOLD CHANGE: 0.4506
- Compound: "CNC(=O)c1ccc(C)c(-n2c(C)cc(OCc3ccc(F)cc3F)c(Br)c2=O)c1 [PH-797804]"
  ANGPTL3-LINEAR FOLD CHANGE: 0.2736

Query :: Item COc1cc(N2CCC(N3CCN(C)CC3)CC2)ccc1Nc1ncnc(Nc2ccccc2S(=O)(=O)C(C)C)n1 [ASP3026] with ANGPTL3 - ANGPTL3-LINEAR FOLD CHANGE?
Result :: 0.3923

Query :: Item Cc1c(OCC(F)(F)F)ccnc1C[S+]([O-])c1nc2ccccc2[nH]1 (stereo not shown) [Lansoprazole] with ANGPTL3 - ANGPTL3-LINEAR FOLD CHANGE?
Result :: 0.4763

Query :: Item O=C(CCCCCCC(=O)Nc1ccccc1)NO [Vorinostat (SAHA, MK0683), Vorinostat] with ANGPTL3 - ANGPTL3-LINEAR FOLD CHANGE?
Result :: 0.3511

Query :: Item Nc1ncn([C@@H]2O[C@H](CO)[C@@H](O)[C@H]2O)c(=O)n1 [Azacitidine] with ANGPTL3 - ANGPTL3-LINEAR FOLD CHANGE?
Result :: 0.2316

---

The following molecules are listed with their measured ANGPTL3-LINEAR FOLD CHANGE values.
- System: ANGPTL3
- Protocol summary: RNA-seq of ANGPTL3 expression in compound-treated primary human hepatocytes; note: test concentration or dose not given here
- Format: cell-based
- Test parameters: additional compounds (Table 13), linear fold change
Keep it simple and answer with nothing but the number.

Look over these answered cases.
- Molecule: "Cn1cc(C2=C(c3cn(C4CCN(Cc5ccccn5)CC4)c4ccccc34)C(=O)NC2=O)c2ccccc21"
  ANGPTL3-LINEAR FOLD CHANGE: 0.2176
- Molecule: "COCCn1c2c([n+](Cc3cnccn3)c1C)C(=O)c1ccccc1C2=O [YM155 (Sepantronium Bromide), Sepantronium Bromide]"
  ANGPTL3-LINEAR FOLD CHANGE: 0.3487

// moving on: another record for ANGPTL3-LINEAR FOLD CHANGE
Query :: Looking for the measured ANGPTL3-LINEAR FOLD CHANGE of c1ccc2c(CCNc3ccc(Nc4ccncc4)cc3)c[nH]c2c1 [JNJ-26854165 (Serdemetan), Serdemetan] , can you help?
Result :: 0.1817
